B1: AUP1 (parent)
chain: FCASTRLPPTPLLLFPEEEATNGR

Variants of: B1
Test: protein stability index of a GFP-peptide fusion (GPS, HEK-293T) (PSI 1-6); higher = more stable;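 further: lentivirally expressed fusions sorted by FACS into six bins by GFP to DsRed ratio, PSI derived from sequencing read proportions per bin multiplied by bin number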
Conditions: c terminus: a fixed tail appended
MEASURED_QUANTITY: protein stability index
Give a plain numeric answer without units written out.

# count of solved cases: 5
{"columns": ["SEQUENCE_CHAIN", "protein stability index"],
 "data": [
  ["FCASTRLPPTPLLLFPEEEETNGR", 3.51],
  ["FCASTRLPMTPLLLFPEEEATNGR", 1.84],
  ["FCASTRLPPTPLLTFPEEEATNGR", 3.41],
  ["FCASTRLPPTPLLLFPEEEACNGR", 3.05],
  ["FCASTRLPPTPLLLFPEEAATNGR", 2.74]
]}

Consider FCASTRLPPTPLLYFPEEEATNGR . Its measured protein stability index is 2.59

For record FCASTRLPPTPLLLFPEEEATNTR the listed protein stability index is 2.76

Kindly note the recorded protein stability index for FCASTRLPPTPLLMFPEEEATNGR , which is 3.29

Measured protein stability index, FCASTRLPPTPLLLFPEEEATQGR : 3.18

Entry FCASTRLPPTPLLLFGEEEATNGR — recorded protein stability index = 2.69

Memo: FCASTRLPPTPLLLFSEEEATNGR , reported protein stability index: 2.4

Record FGASTRLPPTPLLLFPEEEATNGR , field protein stability index: 4.33

// ACASTRLPPTPLLLFPEEEATNGR : protein stability index value = 4.17

Lab note: FCASTRLPPNPLLLFPEEEATNGR gave protein stability index of 2.92

protein stability index measured on FCSSTRLPPTPLLLFPEEEATNGR = 2.44

Record FCASTRLPPTPLLLFPEEEAKNGR . Reported protein stability index: 3.09
